zone of inhibition at 100 µg/disc reference
test system: Klebsiella pneumoniae; assay: Antibacterial activity against Klebsiella pneumoniae at 100 ug/disk after 24 hrs by disk diffusion method; type: functional; conditions: read-out: IZ
Just the number please, in mm, no unit attached.

Before answering, review these 5 worked examples.
> print(dat)
                           structure.smiles                         value.kind  observed
1  O=S(=O)(CC1=NCCO1)c1c[nH]cc1S(=O)(=O)c1ccc(Cl)cc1  zone of inhibition at 100 µg/disc        15
2  O=S(=O)(CC1=NCCO1)c1c[nH]cc1S(=O)(=O)c1ccccc1  zone of inhibition at 100 µg/disc        14
3  O=S(=O)(/C=C/S(=O)(=O)c1ccc(Cl)cc1)CC1=NCCO1  zone of inhibition at 100 µg/disc        10
4  Cc1ccc(S(=O)(=O)c2c[nH]cc2S(=O)(=O)CC2=NCCO2)cc1  zone of inhibition at 100 µg/disc        10
5  O=S(=O)(CC1=NCCS1)c1c[nH]cc1S(=O)(=O)c1ccccc1  zone of inhibition at 100 µg/disc        23

Turning now to a further molecule:
Prompt line: For the molecule O=S(=O)(/C=C/S(=O)(=O)c1ccc(Cl)cc1)CC1=NCCS1 , what zone of inhibition at 100 µg/disc is on record?
Response line: 22

----------
test system: Bacillus subtilis; experiment: Antibacterial activity against Bacillus subtilis at 200 ug/disk after 24 hrs by disk diffusion method; assay type: functional; settings: read-out: IZ
Quick rule: zone of inhibition at 200 µg/disc of at least 20 mm means Satisfied, below that means Not satisfied.

> print(dat)
                           structure.smiles   target.or.system  class.name
1  O=S(=O)(/C=C/S(=O)(=O)c1ccc(Cl)cc1)CC1=NCCS1  Bacillus subtilis   Satisfied

Prompt line: Could you verify whether the entry Cc1ccc(S(=O)(=O)c2c[nH]cc2S(=O)(=O)CC2=NCCS2)cc1 shows zone of inhibition at 200 µg/disc of no less than 20 mm?
Response line: Satisfied

Prompt line: Try this compound next: O=C(N[C@H](CO)[C@H](O)c1ccc([N+](=O)[O-])cc1)C(Cl)Cl
Response line: Satisfied

----------
test system: Staphylococcus aureus; experiment: Antibacterial activity against Staphylococcus aureus at 200 ug/disk after 24 hrs by disk diffusion method; format: functional; details: read-out: IZ
Quick rule: zone of inhibition at 200 µg/disc of at least 20 mm means satisfied, below that means not satisfied.

> print(dat)
                           structure.smiles     class.name
1  O=S(=O)(CC1=NCCO1)c1c[nH]cc1S(=O)(=O)c1ccccc1  not satisfied

Now examine the next entry.
Prompt line: Could you verify whether the entry Cc1ccc(S(=O)(=O)c2c[nH]cc2S(=O)(=O)CC2=NCCO2)cc1 shows zone of inhibition at 200 µg/disc of no less than 20 mm?
Response line: not satisfied

----------
zone of inhibition at 100 µg/disc reference
test system: Curvularia lunata; assay: Antifungal activity against Curvularia lunata at 100 ug/disk after 48 hrs by disk diffusion method; assay type: functional; details: read-out: IZ
Just the number please, in mm, no unit attached.

Before answering, review these 3 worked examples.
> print(dat)
                                   molecule                         value.kind  observed
1  O=S(=O)(/C=C/S(=O)(=O)c1ccc(Cl)cc1)CC1=NCCS1  zone of inhibition at 100 µg/disc        24
2  O=S(=O)(CC1=NCCS1)c1c[nH]cc1S(=O)(=O)c1ccccc1  zone of inhibition at 100 µg/disc        32
3  Cc1ccc(S(=O)(=O)/C=C/S(=O)(=O)CC2=NCCO2)cc1  zone of inhibition at 100 µg/disc        18

Prompt line: For the molecule O=S(=O)(CC1=NCCO1)c1c[nH]cc1S(=O)(=O)c1ccc(Cl)cc1 , what zone of inhibition at 100 µg/disc is on record?
Response line: 20

Prompt line: Try this molecule next: O=S(=O)(/C=C/S(=O)(=O)c1ccc(Cl)cc1)CC1=NCCO1
Response line: 18

Prompt line: Try this molecule next: Cc1ccc(S(=O)(=O)/C=C/S(=O)(=O)CC2=NCCS2)cc1
Response line: 21
